So I've got a bunch of molecules here, and I need their pIC50 values.
experimental system: human recombinant serotonin 5-HT2A receptor (Homo sapiens, UniProt P28223)
Sequence (P28223 whole entry): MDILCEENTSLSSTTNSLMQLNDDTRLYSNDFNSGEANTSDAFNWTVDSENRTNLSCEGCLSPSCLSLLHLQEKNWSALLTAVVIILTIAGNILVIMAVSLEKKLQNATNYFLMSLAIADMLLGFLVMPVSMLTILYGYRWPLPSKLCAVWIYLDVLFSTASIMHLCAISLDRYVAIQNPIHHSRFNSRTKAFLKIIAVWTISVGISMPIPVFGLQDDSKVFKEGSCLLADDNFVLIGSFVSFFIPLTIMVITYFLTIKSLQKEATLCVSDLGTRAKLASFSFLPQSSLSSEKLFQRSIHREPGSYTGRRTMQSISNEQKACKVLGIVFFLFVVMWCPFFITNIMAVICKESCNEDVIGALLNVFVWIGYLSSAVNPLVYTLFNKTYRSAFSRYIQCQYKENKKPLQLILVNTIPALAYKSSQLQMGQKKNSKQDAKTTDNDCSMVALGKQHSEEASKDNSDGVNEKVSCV
protocol: Binding affinity for serotonin 5-HT2A receptor ([3H]Ketanserin)
conditions used: CHO-K1 expressed receptor, 1 nM [3H]Ketanserin
Where a name gives a salt, the structure may show the parent alone.
Scale: negative log10 of molar concentration, which is what pIC50 denotes.

Input: Param item = Cc1cccc(N2CCN(CCCNC(=O)c3cc(-c4ccccc4)n(CC(C)C)c3C)CC2)c1C [Example 27] ; retrieve measured pIC50.
Output: 6.05

Input: Param item = CCn1c(-c2ccc(Cl)cc2)cc(C(=O)NCCCN2CCN(c3cccc(C)c3C)CC2)c1C [Example 63, hydrochloride] ; retrieve measured pIC50.
Output: 6.82

Input: Param item = CCCCc1cc(C(=O)NCCCN2CCN(c3cccc(Cl)c3Cl)CC2)c(C)[nH]1 [Example 137] ; retrieve measured pIC50.
Output: 7.17

Input: Param item = Cc1c(C(=O)NCCCN2CCN(c3cccc(Cl)c3Cl)CC2)cc(-c2cccnc2)n1C [Example 100] ; retrieve measured pIC50.
Output: 7.31

###

experimental system: human recombinant 5-HT2C receptor (Homo sapiens)
protocol: Binding affinity for serotonin 5-HT2C receptor ([3H]Mesulergine)
conditions used: CHO-K1 membranes, 1.3 nM [3H]Mesulergine
Where a name gives a salt, the structure may show the parent alone.
So I've got a bunch of molecules here, and I need their IC50 values.
Reply with just the number (in nM).

Input: API: value(readout= IC50, system= human recombinant 5-HT2C receptor (Homo sapiens), query= CCn1c(-c2ccc(Cl)cc2)cc(C(=O)NCCCN2CCN(c3cccc(C)c3C)CC2)c1C [Example 63, hydrochloride] )
Output: 39

Input: API: value(readout= IC50, system= human recombinant 5-HT2C receptor (Homo sapiens), query= CCCCc1cc(C(=O)NCCCN2CCN(c3cccc(Cl)c3Cl)CC2)c(C)n1C [Example 138] )
Output: 268

Input: API: value(readout= IC50, system= human recombinant 5-HT2C receptor (Homo sapiens), query= CCn1c(C)c(C(=O)NCCCN2CCN(c3cccc(Cl)c3Cl)CC2)c(C)c1-c1ccccc1 [Example 80, hydrochloride] )
Output: 42

Input: API: value(readout= IC50, system= human recombinant 5-HT2C receptor (Homo sapiens), query= Cc1[nH]c(-c2ccccc2)cc1C(=O)NCCCN1CCN(c2cccc(Cl)c2Cl)CC1 [Example 25] )
Output: 599

###

So I've got a bunch of compounds here, and I need their pIC50 values.
experimental system: human recombinant 5-HT2C receptor (Homo sapiens, UniProt P28335)
Sequence (P28335 33-458): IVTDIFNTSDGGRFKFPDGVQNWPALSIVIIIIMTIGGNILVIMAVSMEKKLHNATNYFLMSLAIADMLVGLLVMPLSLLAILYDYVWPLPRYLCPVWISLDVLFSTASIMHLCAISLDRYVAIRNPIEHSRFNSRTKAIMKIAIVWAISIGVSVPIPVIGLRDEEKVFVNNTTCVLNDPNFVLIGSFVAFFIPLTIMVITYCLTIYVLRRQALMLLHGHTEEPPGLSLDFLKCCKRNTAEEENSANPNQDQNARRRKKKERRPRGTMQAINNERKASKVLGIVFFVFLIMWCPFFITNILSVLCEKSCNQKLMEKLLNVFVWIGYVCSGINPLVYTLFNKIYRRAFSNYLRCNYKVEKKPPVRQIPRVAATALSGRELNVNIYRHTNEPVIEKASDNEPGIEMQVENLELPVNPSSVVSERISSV
protocol: Binding affinity for serotonin 5-HT2C receptor ([3H]Mesulergine)
conditions used: CHO-K1 membranes, 1.3 nM [3H]Mesulergine
Where a name gives a salt, the structure may show the parent alone.
Scale: negative log10 of molar concentration, which is what pIC50 denotes.

Input: API: value(readout= pIC50, system= human recombinant 5-HT2C receptor (Homo sapiens, UniProt P28335), query= CCCn1c(-c2ccccc2)cc(C(=O)NCCCN2CCN(c3cccc(Cl)c3Cl)CC2)c1C [Example 12] )
Output: 6.20

Input: API: value(readout= pIC50, system= human recombinant 5-HT2C receptor (Homo sapiens, UniProt P28335), query= CCCn1c(-c2ccccn2)cc(C(=O)NCCCN2CCN(c3cccc(Cl)c3Cl)CC2)c1C [Example 93, dihydrochloride] )
Output: 6.19

Input: API: value(readout= pIC50, system= human recombinant 5-HT2C receptor (Homo sapiens, UniProt P28335), query= Cc1c(C(=O)NCCCN2CCN(c3cc(Cl)ccc3Cl)CC2)cc(-c2ccccc2)n1C [Example 156] )
Output: 6.09

Input: API: value(readout= pIC50, system= human recombinant 5-HT2C receptor (Homo sapiens, UniProt P28335), query= Cc1c(C(=O)NCCCN2CCN(c3cccc(Cl)c3Cl)CC2)cc(-c2ccccc2)n1C [Example 10] )
Output: 7.92

Input: API: value(readout= pIC50, system= human recombinant 5-HT2C receptor (Homo sapiens, UniProt P28335), query= CCCCCCn1c(-c2ccccc2)cc(C(=O)NCCCN2CCN(c3cccc(Cl)c3Cl)CC2)c1C [Example 72, hydrochloride] )
Output: 7.17

Input: API: value(readout= pIC50, system= human recombinant 5-HT2C receptor (Homo sapiens, UniProt P28335), query= Cc1c(C(=O)NCCCN2CCN(c3cccc(Cl)c3Cl)CC2)cc(-c2ccccc2)n1-c1ccc(F)cc1 [Example 16] )
Output: 6.33

Input: API: value(readout= pIC50, system= human recombinant 5-HT2C receptor (Homo sapiens, UniProt P28335), query= Cc1cccc(N2CCN(CCCNC(=O)c3cc(-c4ccccc4)n(C)c3C)CC2)c1C [Example 3] )
Output: 6.88

Input: API: value(readout= pIC50, system= human recombinant 5-HT2C receptor (Homo sapiens, UniProt P28335), query= Cc1[nH]c(-c2ccccc2)c(C)c1C(=O)NCCN1CCN(c2cccc(Cl)c2Cl)CC1 [Example 76, hydrochloride] )
Output: 7.89

Input: API: value(readout= pIC50, system= human recombinant 5-HT2C receptor (Homo sapiens, UniProt P28335), query= CCn1c(-c2ccccc2)cc(C(=O)NCCCCN2CCN(c3cccc(C)c3C)CC2)c1C [Example 42, hydrochloride] )
Output: 7.77

Input: API: value(readout= pIC50, system= human recombinant 5-HT2C receptor (Homo sapiens, UniProt P28335), query= CCCn1c(-c2ccccc2)cc(C(=O)NCCCN2CCN(c3ccccc3OC)CC2)c1C [Example 84] )
Output: 5.85

Input: API: value(readout= pIC50, system= human recombinant 5-HT2C receptor (Homo sapiens, UniProt P28335), query= CCCn1c(-c2ccc(Cl)cc2)cc(C(=O)NCCCN2CCN(c3cccc(C)c3C)CC2)c1C [Example 65, hydrochloride] )
Output: 7.59

Input: API: value(readout= pIC50, system= human recombinant 5-HT2C receptor (Homo sapiens, UniProt P28335), query= Cc1c(C(=O)NCCCN2CCN(c3cccc(Cl)c3)CC2)cc(-c2ccccc2)n1C [Example 1] )
Output: 6.80

Input: API: value(readout= pIC50, system= human recombinant 5-HT2C receptor (Homo sapiens, UniProt P28335), query= Cc1c(Cl)cccc1N1CCN(CCNC(=O)c2cc(C(C)(C)C)n(C)c2C)CC1 [Example 187] )
Output: 6.68

Input: API: value(readout= pIC50, system= human recombinant 5-HT2C receptor (Homo sapiens, UniProt P28335), query= Cc1cccc(N2CCN(CCCCNC(=O)c3cc(-c4ccc(Cl)cc4)[nH]c3C)CC2)c1C [Example 46, hydrochloride] )
Output: 7.06

Input: API: value(readout= pIC50, system= human recombinant 5-HT2C receptor (Homo sapiens, UniProt P28335), query= COc1ccc(-c2cc(C(=O)NCCCN3CCN(c4cccc(Cl)c4Cl)CC3)c(C)[nH]2)cc1 [Example 73, hydrochloride] )
Output: 6.70

Input: API: value(readout= pIC50, system= human recombinant 5-HT2C receptor (Homo sapiens, UniProt P28335), query= Cc1c(C(=O)NCCCN2CCN(c3cccc(Cl)c3Cl)CC2)cc(-c2ccncc2)n1C [Example 106] )
Output: 6.76

Input: API: value(readout= pIC50, system= human recombinant 5-HT2C receptor (Homo sapiens, UniProt P28335), query= Cc1ccc2cccc(N3CCN(CCNC(=O)c4cc(C(C)(C)C)n(C)c4C)CC3)c2n1 [Example 188] )
Output: 5.82

Input: API: value(readout= pIC50, system= human recombinant 5-HT2C receptor (Homo sapiens, UniProt P28335), query= Cc1[nH]c(-c2ccccc2)c(C)c1C(=O)NCCCN1CCN(c2cccc(Cl)c2Cl)CC1 [Example 77, hydrochloride] )
Output: 7.80

Input: API: value(readout= pIC50, system= human recombinant 5-HT2C receptor (Homo sapiens, UniProt P28335), query= Cc1cccc(N2CCN(CCCCNC(=O)c3cc(-c4ccccc4)n(C)c3C)CC2)c1C [Example 35, hydrochloride] )
Output: 7.21

Input: API: value(readout= pIC50, system= human recombinant 5-HT2C receptor (Homo sapiens, UniProt P28335), query= CCCn1c(-c2ccccc2)cc(C(=O)NCCCN2CCN(c3ccccc3C#N)CC2)c1C [Example 90, hydrochloride] )
Output: 6.20

Input: API: value(readout= pIC50, system= human recombinant 5-HT2C receptor (Homo sapiens, UniProt P28335), query= Cc1c(C(=O)NCCCN2CCN(c3cccc(Cl)c3)CC2)cc(-c2ccccc2)n1CC1CCCCC1 [Example 20] )
Output: 6.21

Input: API: value(readout= pIC50, system= human recombinant 5-HT2C receptor (Homo sapiens, UniProt P28335), query= Cc1c(C(=O)NCCN2CCN(c3cccc(Cl)c3Cl)CC2)cc(-c2ccc(Cl)cc2)n1C [Example 68, hydrochloride] )
Output: 7.62

Input: API: value(readout= pIC50, system= human recombinant 5-HT2C receptor (Homo sapiens, UniProt P28335), query= CCCn1c(-c2ccncc2)cc(C(=O)NCCCN2CCN(c3cccc(Cl)c3Cl)CC2)c1C [Example 107] )
Output: 6.38

Input: API: value(readout= pIC50, system= human recombinant 5-HT2C receptor (Homo sapiens, UniProt P28335), query= Cc1cccc(N2CCN(CCCNC(=O)c3cc(-c4ccccc4)n(-c4ccc(F)cc4)c3C)CC2)c1C [Example 15] )
Output: 6.79

Input: API: value(readout= pIC50, system= human recombinant 5-HT2C receptor (Homo sapiens, UniProt P28335), query= Cc1c(C(=O)NCCCN2CCN(c3cccc(Cl)c3Cl)CC2)c(C)n(C)c1-c1ccccc1 [Example 79, hydrochloride] )
Output: 7.80

Input: API: value(readout= pIC50, system= human recombinant 5-HT2C receptor (Homo sapiens, UniProt P28335), query= Cc1c(C(=O)NCCCN2CCN(c3cccc(Cl)c3Cl)CC2)cc(-c2ccccc2)n1N1CCCCC1 [Example 13] )
Output: 6.10

Input: API: value(readout= pIC50, system= human recombinant 5-HT2C receptor (Homo sapiens, UniProt P28335), query= CCn1c(-c2ccccc2)cc(C(=O)NCCN2CCN(c3cccc(Cl)c3Cl)CC2)c1C [Example 49, hydrochloride] )
Output: 7.02

Input: API: value(readout= pIC50, system= human recombinant 5-HT2C receptor (Homo sapiens, UniProt P28335), query= Cc1c(C(=O)NCCCN2CCN(c3ccc(Cl)cc3Cl)CC2)cc(-c2ccccc2)n1C [Example 154, hydrochloride] )
Output: 6.46

Input: API: value(readout= pIC50, system= human recombinant 5-HT2C receptor (Homo sapiens, UniProt P28335), query= CCCn1c(-c2ccccc2)cc(C(=O)NCCCN2CCN(c3cccc(OC)c3OC)CC2)c1C [Example 159] )
Output: 6.01

Input: API: value(readout= pIC50, system= human recombinant 5-HT2C receptor (Homo sapiens, UniProt P28335), query= Cc1[nH]c(-c2ccccc2)cc1C(=O)NCCCN1CCN(c2cccc(Cl)c2)CC1 [Example 23] )
Output: 6.55
